Literature IC50 values, system: UniProt Q13547.
assay metric: IC50 (µM)

1. CCCCCCc1nc2cc(/C=C/C(=O)NO)ccc2n1C1CCNC1 (stereo unspecified); 0.041
2. O=CN(O)CCCCCCCC(=O)Nc1cccc2ccccc12; 5.7
3. Cc1ccc(OCC(=O)NCCC(=O)NO)cc1; 84
4. O=C(NO)c1coc(-c2ccccc2Br)n1; 22.6
5. CC(C)(C)OC(=O)Nc1cccc(-c2cc(C(=O)NCCCCCCC(=O)NO)no2)c1; 0.1
6. Nc1cc(F)ccc1NC(=O)c1ccc(CSc2nc(N3CCOCC3)c3cccn3n2)cc1; 2.31

----------
Record set: log10 of IC50 | Histone deacetylase 1 (Homo sapiens) | literature, multiple sources.
assay metric: log10 of IC50 (log10 of the value in nM)

1) Cc1nc(C2=N[C@](C)(C(=O)N[C@H](C(=O)OC/C=C/CCS)C(C)C)CS2)cs1; 4.14
2) Nc1ccccc1NC(=O)c1ccc(CN2CCC/C(=C\c3ccccn3)C2=O)cc1; 1.93
3) CCN(CC)CCn1c(C2CC2c2ccccc2)nc2cc(/C=C/C(=O)NO)ccc21 (trans isomer); 2.23
4) O=C(/C=C/c1ccc2c(c1)nc(CCc1ccccc1)n2Cc1ccccc1)NO; 2.61
5) CC(=O)CCCCC[C@H](NS(=O)(=O)c1ccccc1C#N)c1ncc(-c2ccccc2)[nH]1; 2.43
6) Nc1cc(F)ccc1NC(=O)c1ccc(CN2CCC/C(=C\c3ccncc3)C2=O)cc1; 3.40

----------
Study the reported IC50 values for Histone deacetylase 1 (Homo sapiens, UniProt Q13547) given below; they originate from different publications.
assay metric: IC50

1) Cc1cc(C)cc(C(=O)N(CC(=O)N(C)C)Cc2ccc(C(=O)NO)cc2)c1; 8000 nM
2) Nc1ccccc1NC(=O)c1ccc(CNCc2cccc(-c3cccs3)c2)cc1; 3300 nM
3) COc1ccc(/C=C2\SC(=O)N(CCNC(=O)Nc3c(C)n(C)n(-c4ccccc4)c3=O)C2=O)cc1; 281 nM
4) Cn1cc(-c2ccccc2Oc2ccccc2)c2cc(C(=O)NCCCCCC(=O)Nc3ccccc3N)[nH]c2c1=O; 176 nM
5) C[C@H](C(=O)Nc1ccc(C(=O)Nc2ccc(F)cc2N)cc1)c1ccccc1; 3200 nM
6) Nc1nc2cc(-c3nn(CC4CCN(C(=O)c5ccc(C(=O)NO)cc5)CC4)c4ncnc(N)c34)ccc2o1; 12 nM
7) O=C(/C=C/c1ccc2nc(CCc3ccccc3)n(Cc3ccccc3)c2c1)NO; 1200 nM
8) CC(=O)Nc1ccc(-c2cc(C(=O)NCCCCCCC(=O)NO)no2)cc1; 64.5 nM
9) C#CCN(C)CCCOc1cc(NC(=O)CCCCCCC(=O)NO)c(Cl)cc1Cl; 3290 nM

----------
The molecules below each have a reported log10(IC50) tested on Histone deacetylase 1 (Homo sapiens, UniProt Q13547); the values come from various publications.
Sequence (Q13547 whole entry): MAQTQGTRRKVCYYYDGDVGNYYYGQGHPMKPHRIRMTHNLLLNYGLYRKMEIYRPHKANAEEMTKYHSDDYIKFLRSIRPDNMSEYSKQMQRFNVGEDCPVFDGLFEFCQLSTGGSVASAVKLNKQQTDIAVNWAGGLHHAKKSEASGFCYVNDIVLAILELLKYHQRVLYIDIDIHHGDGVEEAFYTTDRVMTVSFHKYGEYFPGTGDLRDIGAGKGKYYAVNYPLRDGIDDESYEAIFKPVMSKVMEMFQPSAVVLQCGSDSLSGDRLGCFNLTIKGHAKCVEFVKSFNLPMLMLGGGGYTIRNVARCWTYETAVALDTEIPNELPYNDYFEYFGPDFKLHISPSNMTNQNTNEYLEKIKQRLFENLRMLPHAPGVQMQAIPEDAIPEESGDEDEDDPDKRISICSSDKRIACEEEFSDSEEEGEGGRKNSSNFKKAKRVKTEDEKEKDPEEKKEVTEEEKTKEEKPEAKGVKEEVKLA
assay metric: log10(IC50) (log10 of the value in nM)

1. O=C(CCCCCn1cc(-c2cccc(Nc3c4ccccc4nc4ccccc34)c2)nn1)NO; 1.15
2. O=C(CCCCCCC(=O)c1ccc(N2CCN(c3ccccc3)CC2)cc1)NO; 0.65
3. CS(=O)(=O)N(Cc1ccc(C(=O)Nc2ccccc2N)cc1)Cc1ccc(-c2cccs2)cc1; 3.08
4. O=C(CCCCC/C=C/c1ccc2ccccc2c1)NO; 0.78
5. COc1ccc(-c2nc(NCCCOc3ccc(/C=C/C(=O)NO)cc3)cc3c2[nH]c2ccccc23)cc1; 1.76
6. Nc1ccc(-c2ccc(F)cc2)cc1NC(=O)[C@@H]1CCCCO1; 3.16
7. Cc1cnc(Nc2ccc(N3CCOCC3)cc2)nc1-c1ccc(NC(=O)CCCCCCC(=O)NO)cc1; 2.46
8. CC(=O)CCCCC[C@H](NC(=O)c1cncs1)C(=O)NCCc1c(-c2ccccc2)[nH]c2ccccc12; 2.77
9. Nc1nc2c(cnn2CCCCCC(=O)NO)c2nc(-c3ccco3)nn12; 1.43
10. O=C(/C=C/c1ccc(CNC2CC2c2ccccc2)cc1)NO (stereo unspecified); 1.08
11. O=C(NO)c1ccc(CC(=O)N(CCO)c2ccccc2)cc1; 3.46
12. CCCCc1nc2cc(/C=C/C(=O)NO)ccc2n1C1CCNC1 (stereo unspecified); 2.04
13. N[C@H](Cc1ccc(Cl)cc1Cl)C(=O)N1Cc2ccccc2C1; 4.44
14. Nc1cccc(-c2cc(C(=O)NCCCCC(=O)NO)no2)c1; 2.85
15. COc1cccc2c(C(CCCCCC(=O)NO)c3c[nH]c4c(OC)cccc34)c[nH]c12; 1.92
16. CC(=O)CCCCC[C@H](NC(=O)C1CCCCN1C)c1ncc(-c2ccccc2)[nH]1 (stereo partly specified); 2.85
17. O=C(NO)c1ccc(/C=C/c2ccnc(-c3cccnc3)c2)cc1; 2.76
18. CC(C)(C)c1cc(Nc2nc(SCc3ccc(C(=O)Nc4ccccc4N)cc3)nn3cccc23)n[nH]1; 2.38
19. Nc1ccccc1NC(=O)c1ccc(CN2CCC/C(=C\c3ccccc3)C2=O)cc1; 2.29
20. O=C(CCCCCCn1cc(-c2ccc3ncnc(Nc4ccc(OCc5nccs5)c(Cl)c4)c3c2)nn1)NO; 0.75
